Each item that follows carries a reported binding score.
Molecular target: T1, Bdf1 bromodomain 2 (GST-tagged, WT) (Saccharomyces cerevisiae (strain ATCC …, UniProt P35817))
T1 chain: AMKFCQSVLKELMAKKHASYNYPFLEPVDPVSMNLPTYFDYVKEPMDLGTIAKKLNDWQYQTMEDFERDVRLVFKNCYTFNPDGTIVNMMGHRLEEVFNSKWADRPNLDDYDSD
Experiment: histone peptide array probed with recombinant GST-bromodomain, signal normalised to myc peptide control
Non-standard residues stand in square brackets, D forms with d. No end group written: not given here. Arg(Me2a) = CN(C)C(=N)NCCC[C@H](N)C(=O)O; Arg(Me2s) = CN=C(NC)NCCC[C@H](N)C(=O)O; pS = N[C@@H](COP(=O)(O)O)C(=O)O; Lys(Me) = CNCCCC[C@H](N)C(=O)O
Form field (numeric): enter value without unit.

>  <Binder>
A[Arg(Me2a)]T[Lys(Me)]QTARK(Ac)STGGKAPRKQ

>  <binding score>
0.00207

$$$$
>  <Binder>
PRKQLATKAA[Arg(Me2s)][Lys(Me)][pS]APATGG [H3 16-35]

>  <binding score>
0

$$$$

Now for the binder whose binding score we want.
Supply binding score value. Item: ARTKQTARKSTGGKAPRKQ (A Rme2s T Kme2 Q T A R Kme1 S T G G K A P R K Q)
0.00895
